Where do these numbers come from? They come from paper PMC4552634.

Test system: P. falciparum stage V gametocytes
Parameters: BacTiter-Glo ATP luminescence viability of purified stage V gametocytes in 384-well plates, per cent inhibition versus DMSO
CONDITION DETAILS: 48 h, 5 µM; inhibitor
Hit rate of the full screen: of about 13,000 compounds, about 3,200 (25%) showed an effect of 50% or more. The list shows a part of the results.
Collected % Inhibition values appear next to each entry.
# include the unit after the value

Here's what some known entries look like.
MOLECULE	% Inhibition
Cc1ccc(C(=O)N2CCN(Cc3nccs3)CC2)cc1	3.888%
CCCC1(C)CSc2ccccc2C(c2ccccc2)N1 (stereo not shown)	11.78%
Cc1cc(NC(=O)c2ccc(S(=O)(=O)N(Cc3ccccc3)C(C)C)cc2)no1	-7.124%

The record that follows has no % Inhibition shown yet.
Sample COc1ccc(NC(=O)Nc2ccc(-c3ccccc3)cc2)cc1Cn1cnc(N2CCCNCC2)cc1=O , system: P. falciparum stage V gametocytes. Its % Inhibition is 22.91%
